Data provenance is patent US7645881B2.

Attribute: melting point

substance_smiles: Cc1nc2sc(C(=O)OC(C)(C)C)c(N)c2c(C)c1OCCN1CCN(C)CC1
melting point: 155.4 to 155.5 °C
--
substance_smiles: Cc1nc2sc(-c3nc(-c4cccnc4)no3)c(N)c2c(C)c1C
melting point: 278 to 280 °C
--
substance_smiles: CCCCNc1cc(C)c2c(N)c(C(N)=O)sc2n1
melting point: 169 to 170 °C
--
substance_smiles: N#Cc1c(NC(=O)c2cccc(C(F)(F)F)c2)sc2nc3c(c(-c4cccs4)c12)CCCCC3
melting point: 226.9 to 227.1 °C
--
substance_smiles: Cc1ccccc1-c1nnc(-c2sc3nc(C)c(C)c(C)c3c2N)o1
melting point: 261 to 262 °C
--
substance_smiles: COc1ccccc1-c1noc(-c2sc3nc(C)c(C)c(C)c3c2N)n1
melting point: 244 to 245 °C
--
substance_smiles: Cc1nc2sc(C(=O)OC(C)(C)C)c(N)c2c(C)c1-c1ccccc1
melting point: 212 to 213 °C
--
substance_smiles: Cc1nc2sc(-c3nnc(-c4ccccn4)o3)c(N)c2c(C)c1C
melting point: 306 to 308 °C
--
substance_smiles: COc1ccccc1-c1nnc(-c2sc3nc(C)c(C)c(C)c3c2N)o1
melting point: 238 to 240 °C
--
substance_smiles: Cc1nc2sc(C(=O)OC(C)(C)C)c(N)c2c(C)c1OCCN1CCOCC1
melting point: 102 to 104 °C
--
substance_smiles: COc1ccc(-c2sc3nc4c(c(-c5cccs5)c3c2C#N)CCCCC4)cc1
melting point: 179.2 to 179.6 °C
--
substance_smiles: CN1CCN(C(=O)c2sc3nc4c(c(-c5cccs5)c3c2N)CCCCC4)CC1
melting point: 115 to 118 °C
--
substance_smiles: CCc1c(C)nc2sc(C(=O)OC(C)(C)C)c(-c3ccoc3)c2c1C
melting point: 111 to 111.5 °C
--
substance_smiles: CCc1c(C)nc2sc(C(=O)OC(C)(C)C)c(-c3cccc(Cl)c3)c2c1C
melting point: 152.1 to 152.6 °C
--
substance_smiles: Cc1nc2sc(-c3nnc(-c4ccc(Cl)cc4)o3)c(N)c2c(C)c1C
melting point: 331 to 332 °C
--
substance_smiles: CCc1c(C)nc2sc(C(C)=O)c(-n3cccc3)c2c1C
melting point: 145 to 147 °C
--
substance_smiles: N#Cc1cccc(-c2sc3nc4c(c(-c5cccs5)c3c2C#N)CCCCC4)c1
melting point: 159 to 162 °C
--
substance_smiles: Cc1nc2sc(-c3noc(-c4cccs4)n3)c(N)c2c(C)c1C
melting point: 260 to 265 °C

###

substance_smiles: Cc1nc2sc(-c3noc(-c4ccccc4)n3)c(N)c2c(C)c1C
melting point: 248 to 250 °C

substance_smiles: N#Cc1c(C(=O)Nc2ccccc2)sc2nc3c(c(-c4cccs4)c12)CCCCC3
melting point: 215.3 to 215.7 °C

substance_smiles: Cc1nc2sc(-c3ncc(-c4ccccc4)o3)c(N)c2c(C)c1C
melting point: 284 to 285 °C

substance_smiles: CCc1c(C)nc2sc(NC(=O)C(C)C)c(C#N)c2c1C
melting point: 189 to 190 °C

substance_smiles: CCc1c(C)nc2sc(NC(=O)C3CCCC3)c(C#N)c2c1C
melting point: 228 to 230 °C

substance_smiles: Cc1nc2sc(-c3nc(-c4cccs4)no3)c(N)c2c(C)c1C
melting point: 281 to 282 °C

###

system: HCV replicon; assay: microbe, parasite or virus in culture; assay type: cell-based; details: Hepatitis C virus, 48 h, read-out: Replicon IC50s μM
# key: entry, value: IC50
test_readout: IC50

compound: Cc1nc2sc(-c3nc(-c4cccnc4)no3)c(N)c2c(C)c1C [Compound 25]
endpoint_result: 0.5 to 2 µM
--
compound: Cc1nc2sc(C(=O)OC(C)(C)C)c(N)c2c(C)c1OCCN1CCN(C)CC1 [Compound 71]
endpoint_result: > 2 µM
--
compound: Cc1nc2sc(C(=O)OC(C)(C)C)c(N)c2c(C)c1OCCN1CCCCC1 [Compound 70]
endpoint_result: 0.5 to 2 µM
--
compound: Cc1nc2sc(-c3nc(COc4ccc(Cl)c(Cl)c4)no3)c(N)c2c(C)c1C [Compound 18]
endpoint_result: 0.5 to 2 µM
--
compound: Cc1nc2sc(-c3nnc(-c4ccc(F)cc4)o3)c(N)c2c(C)c1C [Compound 10]
endpoint_result: 0.5 to 2 µM
--
compound: CC(C)(C)OC(=O)c1sc2nc3c(c(-c4ccco4)c2c1N)CCC3 [Compound 33]
endpoint_result: > 2 µM
--
compound: COc1ccc(Nc2sc3nc4c(c(-c5cccs5)c3c2C#N)CCCCC4)cc1 [Compound 64]
endpoint_result: > 2 µM
--
compound: N#Cc1c(-c2ccc3c(c2)OCO3)sc2nc3c(c(-c4cccs4)c12)CCCCC3 [Compound 62]
endpoint_result: > 2 µM
--
compound: Cc1nc2sc(C(=O)OC(C)(C)C)c(N)c2c(C)c1OCCN(C)CCN(C)C [Compound 73]
endpoint_result: 0.5 to 2 µM
--
compound: CCc1c(C)nc2sc(C(C)=O)c(-n3cccc3)c2c1C [Compound 27]
endpoint_result: > 2 µM
--
compound: Cc1cccc(-c2nnc(-c3sc4nc(C)c(C)c(C)c4c3N)o2)c1 [Compound 7]
endpoint_result: 0.5 to 2 µM
--
compound: Cc1nc2sc(-c3nnc(-c4ccccc4Cl)o3)c(N)c2c(C)c1C [Compound 15]
endpoint_result: 0.5 to 2 µM
--
compound: COc1ccc(-c2sc3nc4c(c(-c5cccs5)c3c2C#N)CCCCC4)cc1 [Compound 63]
endpoint_result: > 2 µM
--
compound: N#Cc1cccc(-c2sc3nc4c(c(-c5cccs5)c3c2C#N)CCCCC4)c1 [Compound 61]
endpoint_result: > 2 µM
--
compound: Cc1nc2sc(-c3ncc(-c4ccccc4)o3)c(N)c2c(C)c1C [Compound 26]
endpoint_result: 0.5 to 2 µM
--
compound: Cc1nc2sc(C(=O)OC(C)(C)C)c(N)c2c(C)c1-c1ccccc1 [Compound 55]
endpoint_result: > 2 µM
--
compound: CCc1c(C)nc2sc(C(=O)NCc3ccccc3)c(-c3ccc(OC)cc3)c2c1C [Compound 44]
endpoint_result: > 2 µM
--
compound: Cc1nc2sc(-c3nnc(-c4cccc(F)c4)o3)c(N)c2c(C)c1C [Compound 8]
endpoint_result: 0.5 to 2 µM

###

substance_smiles: Cc1nc2sc(-c3nnc(-c4cccc(F)c4)o3)c(N)c2c(C)c1C
melting point: 300 to 302 °C
--
substance_smiles: N#Cc1c(-c2ccc3c(c2)OCO3)sc2nc3c(c(-c4cccs4)c12)CCCCC3
melting point: 210 to 211 °C
--
substance_smiles: Cc1nc2sc(-c3nnc(-c4cccc(Cl)c4)o3)c(N)c2c(C)c1C
melting point: 302 to 303 °C
--
substance_smiles: COCCN1CCN(CCOc2c(C)nc3sc(C(=O)OC(C)(C)C)c(N)c3c2C)CC1
melting point: 79 to 81 °C
--
substance_smiles: Cc1nc2sc(-c3nnc(-c4ccc(Cl)s4)o3)c(N)c2c(C)c1C
melting point: 284 to 286 °C

###

# key: entry, value: IC50
system: HCV replicon; assay: microbe, parasite or virus in culture; assay type: cell-based; conditions: Hepatitis C virus, 48 h, read-out: Replicon IC50s μM

compound: CN1CCN(C(=O)c2sc3nc4c(c(-c5cccs5)c3c2N)CCCCC4)CC1 [Compound 47]
IC50: > 2 µM

compound: CCc1c(C)nc2sc(C(=O)SC(C)(C)C)cc2c1C [Compound 65]
IC50: 0.5 to 2 µM

compound: Cc1nc2sc(-c3nnc(-c4ccccc4F)o3)c(N)c2c(C)c1C [Compound 14]
IC50: < 0.5 µM

compound: Cc1cc(-c2cccs2)c2c(N)c(C#N)sc2n1 [Compound 30]
IC50: > 2 µM

compound: CC(C)(C)OC(=O)c1sc2nc3c(c(-c4cccc(F)c4F)c2c1N)CCCCC3 [Compound 31]
IC50: > 2 µM

compound: COc1ccccc1-c1noc(-c2sc3nc(C)c(C)c(C)c3c2N)n1 [Compound 20]
IC50: 0.5 to 2 µM

compound: CN1CCN(C(=O)c2sc3nc4c(c(C(F)(F)F)c3c2N)CCCCC4)CC1 [Compound 5]
IC50: > 2 µM

compound: Cc1nc2sc(-c3nnc(-c4ccc(Cl)s4)o3)c(N)c2c(C)c1C [Compound 9]
IC50: 0.5 to 2 µM

compound: CCc1c(C)nc2sc(C(=O)OC(C)(C)C)c(-c3cccc(C#N)c3)c2c1C [Compound 36]
IC50: > 2 µM

compound: CCc1c(C)nc2sc(C(=O)OC(C)(C)C)c(-c3ccc4c(c3)OCO4)c2c1C [Compound 39]
IC50: > 2 µM

compound: CCc1c(C)nc2sc(NC(=O)C(C)C)c(C#N)c2c1C [Compound 53]
IC50: > 2 µM

compound: CC(C)(C)OC(=O)c1sc2nc3c(c(-c4ccco4)c2c1N)CCCC3 [Compound 32]
IC50: > 2 µM

compound: CCc1c(C)nc2sc(C(=O)OC(C)(C)C)c(-c3ccoc3)c2c1C [Compound 40]
IC50: > 2 µM

compound: CCCCNc1cc(C)c2c(N)c(C(N)=O)sc2n1 [Compound 17]
IC50: 0.5 to 2 µM

compound: CCOC(=O)c1sc2nc3c(c(-c4ccco4)c2c1N)CCC3 [Compound 46]
IC50: > 2 µM

compound: Cc1nc2sc(-c3nnc(-c4ccccn4)o3)c(N)c2c(C)c1C [Compound 16]
IC50: < 0.5 µM

compound: N#Cc1c(NC(=O)c2cccc(C(F)(F)F)c2)sc2nc3c(c(-c4cccs4)c12)CCCCC3 [Compound 58]
IC50: > 2 µM

compound: Cc1nc2sc(-c3noc(-c4cccs4)n3)c(N)c2c(C)c1C [Compound 22]
IC50: < 0.5 µM

compound: CC(C)(C)OC(=O)c1sc2nc3c(c(-c4cccs4)c2c1N)CCCCC3 [Compound 45]
IC50: > 2 µM
